# test target: PI3Kδ (p110δ/p85α) (Homo sapiens)
# Construct: N-terminal histidine-tagged recombinant full-length human p110δ; His tag (N)
# Sequence (O00329 whole entry): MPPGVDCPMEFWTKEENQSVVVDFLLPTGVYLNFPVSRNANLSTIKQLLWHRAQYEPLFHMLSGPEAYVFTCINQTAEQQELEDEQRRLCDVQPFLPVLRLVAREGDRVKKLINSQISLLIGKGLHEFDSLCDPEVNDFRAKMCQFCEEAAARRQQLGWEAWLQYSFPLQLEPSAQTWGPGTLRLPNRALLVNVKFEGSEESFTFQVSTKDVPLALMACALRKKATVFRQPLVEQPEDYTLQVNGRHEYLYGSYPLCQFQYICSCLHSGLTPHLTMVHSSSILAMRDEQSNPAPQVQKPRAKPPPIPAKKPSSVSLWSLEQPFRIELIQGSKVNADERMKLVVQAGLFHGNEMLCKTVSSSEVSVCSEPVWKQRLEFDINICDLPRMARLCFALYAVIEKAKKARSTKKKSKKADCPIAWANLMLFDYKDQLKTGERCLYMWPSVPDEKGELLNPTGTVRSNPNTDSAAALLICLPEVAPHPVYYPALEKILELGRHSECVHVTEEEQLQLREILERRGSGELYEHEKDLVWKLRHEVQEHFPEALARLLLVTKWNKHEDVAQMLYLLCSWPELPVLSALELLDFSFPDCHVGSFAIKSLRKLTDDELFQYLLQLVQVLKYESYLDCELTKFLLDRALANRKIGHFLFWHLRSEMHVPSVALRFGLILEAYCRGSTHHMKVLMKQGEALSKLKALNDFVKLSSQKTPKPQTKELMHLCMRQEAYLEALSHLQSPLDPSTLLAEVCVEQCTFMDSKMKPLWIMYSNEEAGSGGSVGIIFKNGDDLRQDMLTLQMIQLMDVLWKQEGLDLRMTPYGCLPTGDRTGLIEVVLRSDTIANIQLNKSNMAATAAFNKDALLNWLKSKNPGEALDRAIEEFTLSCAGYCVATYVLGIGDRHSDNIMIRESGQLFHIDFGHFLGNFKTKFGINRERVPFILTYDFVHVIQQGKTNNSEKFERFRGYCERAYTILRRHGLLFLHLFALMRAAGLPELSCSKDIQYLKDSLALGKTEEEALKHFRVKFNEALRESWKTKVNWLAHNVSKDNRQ
# Sequence (P27986 whole entry partner): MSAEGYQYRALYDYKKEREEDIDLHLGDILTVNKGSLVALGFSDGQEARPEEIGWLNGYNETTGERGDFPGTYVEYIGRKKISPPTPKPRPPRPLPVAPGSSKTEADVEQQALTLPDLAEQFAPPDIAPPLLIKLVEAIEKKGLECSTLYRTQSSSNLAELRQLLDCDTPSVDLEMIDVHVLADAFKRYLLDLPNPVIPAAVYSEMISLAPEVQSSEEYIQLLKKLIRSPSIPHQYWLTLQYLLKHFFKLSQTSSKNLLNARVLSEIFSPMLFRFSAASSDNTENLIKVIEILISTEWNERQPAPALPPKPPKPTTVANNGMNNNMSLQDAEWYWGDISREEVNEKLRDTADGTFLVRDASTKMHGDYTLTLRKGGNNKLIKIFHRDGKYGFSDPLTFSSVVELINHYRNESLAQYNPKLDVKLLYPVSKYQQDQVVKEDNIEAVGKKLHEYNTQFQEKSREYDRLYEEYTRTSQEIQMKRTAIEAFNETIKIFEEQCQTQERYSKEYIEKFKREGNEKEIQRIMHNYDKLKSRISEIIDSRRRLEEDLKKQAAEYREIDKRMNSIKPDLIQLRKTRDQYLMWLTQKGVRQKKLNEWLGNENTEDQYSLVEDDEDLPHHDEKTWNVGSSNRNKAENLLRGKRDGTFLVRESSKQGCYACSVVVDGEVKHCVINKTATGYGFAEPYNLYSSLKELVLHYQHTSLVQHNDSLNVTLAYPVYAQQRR
# protocol text: PI3Kδ fluorescence polarization assay
# conditions used: 10 μM ATP
pIC50: −log10 of the molar value.
experimental endpoint: pIC50

**Q:** Returns the measured pIC50 for the input compound. Input: CN(Cc1cc2nc(-c3ccc(N)cc3)nc(N3CCOCC3)c2s1)c1ncc(C(=O)NO)cn1
**A:** > 7.00

---

Would you mind telling me the reported melting point of each entry?

CN(Cc1cc2nc(-c3ccccc3CO)nc(N3CCOCC3)c2s1)c1ncc(C(=O)NO)cn1 = 173 to 176 °C
CN(Cc1cc2nc(-c3ccc(N)c(O)c3)nc(N3CCOCC3)c2s1)c1ncc(C(=O)NO)cn1 = 214 to 218 °C
Cc1ncc(-c2nc(N3CCOCC3)c3sc(CN(C)c4ncc(C(=O)NO)cn4)cc3n2)cn1 = 184 to 186 °C

Fill in melting point for each of the 4 molecules listed.
1. CN(Cc1cc2nc(-c3cccc4c3CCN4)nc(N3CCOCC3)c2s1)c1ncc(C(=O)NO)cn1
2. CC(=O)c1cc(-c2nc(N3CCOCC3)c3sc(CN(C)c4ncc(C(=O)NO)cn4)cc3n2)ccc1N
3. CN(CCCCCCC(=O)NO)Cc1cc2nc(-c3cccc4[nH]ncc34)nc(N3CCOCC3)c2s1
4. CCCN(Cc1cc2nc(-c3cccc4[nH]ncc34)nc(N3CCOCC3)c2s1)c1ncc(C(=O)NO)cn1

**A:**
1. 146 to 156 °C
2. 156 to 158 °C
3. 131 to 133 °C
4. 224 to 226 °C

Fill in melting point for each of the 2 molecules listed.
1. CN(Cc1cc2nc(-c3ccc(S(C)(=O)=O)cc3)nc(N3CCOCC3)c2s1)c1ncc(C(=O)NO)cn1
2. COc1ccc(-c2nc(N3CCOCC3)c3sc(NS(=O)(=O)c4cccc(/C=C/C(=O)NO)c4)cc3n2)cn1

**A:**
1. 206 to 208 °C
2. > 300 °C

Fill in melting point for each of the 7 molecules listed.
1. CS(=O)(=O)N1CCN(Cc2cc3nc(-c4cccc5nn(CCCCCC(=O)NO)cc45)nc(N4CCOCC4)c3s2)CC1
2. CS(=O)(=O)N1CCN(Cc2cc3nc(-c4cccc5[nH]ncc45)nc(N4CCN(CCCCCCC(=O)NO)CC4)c3s2)CC1
3. CS(=O)(=O)N1CCN(Cc2cc3nc(-c4cccc5c4cnn5CCCCCCC(=O)NO)nc(N4CCOCC4)c3s2)CC1
4. COc1ncc(-c2nc(N3CCOCC3)c3sc(C(C)N(C)c4ncc(C(=O)NO)cn4)cc3n2)cn1 (centres unmarked)
5. CN(Cc1cc2nc(-c3cccc(OCCO)c3)nc(N3CCOCC3)c2s1)c1ncc(C(=O)NO)cn1
6. CN(Cc1cc2nc(-c3ccc(N)c(CO)c3)nc(N3CCOCC3)c2s1)c1ncc(C(=O)NO)cn1
7. CS(=O)(=O)N1CCN(Cc2cc3nc(-c4cccc5nn(CCCCC(=O)NO)cc45)nc(N4CCOCC4)c3s2)CC1

**A:**
124 to 125 °C
131 to 134 °C
127 to 130 °C
210 to 215 °C
148 to 152 °C
195 to 200 °C
146 to 169 °C
